Biological target: SARS CoV-2 M^pro (Severe acute respiratory syndrome coronavirus 2)
Construct: The main protease (M^pro) is a part of the polyprotein chain, also named 3C-like protease; SUMO (cleaved yes); His; made in house; host or cells: Escherichia coli BL21(DE3)
Assay: biochemical
Type: biochemical
Conditions: read-out: Inhibition%(80μM)
Structures can show the parent of a compound that is named as a salt.
Measurement Label: inhibition at 80 µM
Please state the value followed by its unit.

Past entries and their recorded results:
CC(C)CCCC(C)C1CCC2C3CC=C4CC(OS(=O)(=O)O)CCC4(C)C3CCC12C (stereo not drawn) [cholesteryl sodium sulfate, Cholesteryl sodium sulfate]    100%
CCCCCCCC/C=C\CCCCCCCC(=O)O    104%
O=C(O)[C@H]1O[C@@H](Oc2cc3oc(-c4ccc(O)cc4)cc(=O)c3c(O)c2O)[C@H](O)[C@@H](O)[C@@H]1O    66%
CC(C)=CCC(O)C1=CC(=O)c2c(O)ccc(O)c2C1=O (racemic) [(±)-Shikonin]    87.6%
COc1cc2ccc(=O)oc2c(O)c1O    96.8%
O=P(O)(O)O[C@H]1[C@H](OP(=O)(O)O)[C@@H](OP(=O)(O)O)[C@H](OP(=O)(O)O)[C@@H](OP(=O)(O)O)[C@H]1OP(=O)(O)O    97.6%
CC(C)=CCC[C@]1(C)C=Cc2c(O)c3c(c(CC=C(C)C)c2O1)O[C@]12C(=C[C@@H]4C[C@H]1C(C)(C)O[C@@]2(C/C=C(/C)C(=O)O)C4=O)C3=O    78.5%
O=C(OC[C@H]1O[C@@H](OC(=O)c2cc(O)c(O)c(OC(=O)c3cc(O)c(O)c(O)c3)c2)[C@H](OC(=O)c2cc(O)c(O)c(OC(=O)c3cc(O)c(O)c(O)c3)c2)[C@@H](OC(=O)c2cc(O)c(O)c(OC(=O)c3cc(O)c(O)c(O)c3)c2)[C@@H]1OC(=O)c1cc(O)c(O)c(OC(=O)c2cc(O)c(O)c(O)c2)c1)c1cc(O)c(O)c(OC(=O)c2cc(O)c(O)c(O)c2)c1    89.6%
CC(=O)O[C@H]1[C@H](OCCc2ccc(O)c(O)c2)O[C@H](CO)[C@@H](OC(=O)/C=C/c2ccc(O)c(O)c2)[C@@H]1O[C@@H]1O[C@@H](C)[C@H](O)[C@@H](O)[C@H]1O [2'-Acetylacteoside]    90.6%
C/C=C1/[C@H](O[C@@H]2O[C@H](CO)[C@@H](O)[C@H](O)[C@H]2O)OC=C(C(=O)OC)[C@H]1CC(=O)OCCc1ccc(O)c(O)c1    96.6%

Please look at the items below and tell me inhibition at 80 µM for each one, in order.
1. CCCCCCCC/C=C\CCCCCCCCCCCC(=O)O
2. CC(C)=CCCC1=CC(=O)c2c(O)ccc(O)c2C1=O

1: 101%; 2: 82.3%

###

Target: SARS CoV-2 M^pro (Severe acute respiratory syndrome coronavirus 2)
Construct: The main protease (M^pro) is a part of the polyprotein chain, also named 3C-like protease; SUMO (cleaved yes); His; made in house; host or cells: Escherichia coli BL21(DE3)
Experiment: nanoDSF thermal shift assay (TSA)
Assay type: binding
Conditions: compound 50 μM
Where a name gives a salt, the structure may show the parent alone.
Measurement Label: Tm of M^pro

Past entries and their recorded results:
CC(C)CCCC(C)C1CCC2C3CC=C4CC(OS(=O)(=O)O)CCC4(C)C3CCC12C (centres unmarked) [cholesteryl sodium sulfate, Cholesteryl sodium sulfate]    54.1 °C
CC(C)=CC[C@H](OC(=O)C=C(C)C)C1=CC(=O)c2c(O)ccc(O)c2C1=O    57.7 °C
O=c1cc(-c2ccccc2)oc2cc(O)c(O)c(O)c12 [baicalein, Baicalein, reference compound]    56.6 °C

Please look at the items below and tell me Tm of M^pro for each one, in order.
1. COc1cc(O)c2c(c1)oc(=O)c1c3cc(O)c(O)cc3oc21
2. Cc1c(=O)c(=O)c2c3c[nH]c4c(C)c(=O)c(=O)c(c5c[nH]c1c52)c43

1. 55.8 °C
2. 54.9 °C
